System: BT-549 breast
Test: NCI tumour cell line growth inhibition, 48 h
property-measured: GI50

Query: Find the recorded GI50 belonging to CC1(C)N=C(N)N=C(N)N1c1cccc(/C=C/C=C/c2cccc([N+](=O)[O-])c2)c1 and report it.
Response: 6.91 µM

Query: Repeat for the following molecule: N#C/C(=C\c1c(-c2ccccc2)[nH]c2ccccc12)C(=O)c1ccc(Cl)cc1
Response: 5.83 µM

Query: Repeat for the following molecule: CCCCCCCCCCCCc1ccc(C(=O)/C=C/C(=O)O)cc1
Response: 1.91 µM

Query: Repeat for the following molecule: CC1(C)CC(=O)C2=C(C1)NC(SSC1=C(C#N)C(c3ccccc3)C3=C(CC(C)(C)CC3=O)N1)=C(C#N)C2c1ccccc1 (stereo unspecified)
Response: 27.6 µg/mL

Query: Repeat for the following molecule: COc1ccc(-c2cc(-c3ccc(Nc4nc(Nc5ccc(Cl)cc5)nc(Nc5ccc(Cl)cc5)n4)cc3)nc(N)c2C#N)cc1
Response: 3.06 µM

Others:
Query: Find the recorded GI50 belonging to O=C(Nc1n[nH]c2nc(-c3ccco3)c(Br)cc12)C1CC1 and report it.
Response: > 25 µM

----------
System: SF-268 CNS
Experiment: NCI tumour cell line growth inhibition, 48 h
property-measured: TGI

Some compounds with recorded TGI:
Query: Find the recorded TGI belonging to NNC(=O)/C(=C/c1cccc([N+](=O)[O-])c1)NC(=O)c1ccccc1 and report it.
Response: > 100 µM

Query: Repeat for the following compound: O=S(=O)(O)CS(=O)(=O)OCCCl
Response: > 100 µM

Query: Repeat for the following compound: O=C(O)C(CS)NCc1c2ccccc2[n+]([O-])c2ccccc12 (stereo unspecified)
Response: 91.3 µM

Query: Repeat for the following compound: CC[C@@H](CCCC[C@@H]1CC[C@H]2CC(=O)C[C@@H]12)OC
Response: > 100 µM

Query: Repeat for the following compound: Cc1ccc(S(=O)(=O)NC(=O)NC(CO)C(=O)O)cc1 (stereo unspecified)
Response: > 100 µM

Others:
Query: Find the recorded TGI belonging to O=C1/C(=C\c2ccc(Cl)cc2)CN(C(=S)Nc2ccccc2)C/C1=C\c1ccc(Cl)cc1 and report it.
Response: 2.26 µM

Query: Repeat for the following compound: CCOc1cc(/C=N\N(C)C)cc(/C=N\N(C)C)c1O
Response: 61.2 µM

Query: Repeat for the following compound: O=c1[nH]c2cc(C(F)(F)F)ccc2nc1Cc1ccccc1
Response: > 100 µM

Query: Repeat for the following compound: CC(Cc1ccc(Cl)cc1Cl)NO (stereo unspecified)
Response: > 100 µM

Query: Repeat for the following compound: CCCCCCC(=O)C/C(CCC(=O)N(Cc1ccccc1)Cc1ccccc1)=N\Nc1ccc([N+](=O)[O-])cc1[N+](=O)[O-]
Response: > 100 µM

Query: Repeat for the following compound: N#Cc1ncn(-c2ccccc2)c1N
Response: > 100 µM

----------
System: TK-10 renal
Assay: NCI tumour cell line growth inhibition, 48 h; in the data active = GI50 below about 0.43 µM; inactive = the rest
Allowed answers: T = active, F = inactive

Worked cases, answers included:
Query: # lookup: test call for CC(=O)O[C@H]1C(=O)[C@@]2(C)C([C@H](OC(=O)c3ccccc3)[C@]3(O)C[C@H](OC(=O)[C@H](O)[C@H](NC(=O)c4ccccc4)c4ccc(Cl)cc4)C(C)=C1C3(C)C)C1(OC(C)=O)CO[C@@H]1C[C@@H]2O (stereo partly drawn)
Response: T

Query: Repeat for the following molecule: O=C(Nc1ccncc1)C(=O)c1cn(S(=O)(=O)c2ccc(Br)cc2)c2ccccc12
Response: F

// switching to the query molecule
Query: # lookup: test call for O=C(c1ccccc1)c1nn(-c2ccc(Cl)cc2)c2nc3nc(-c4ccccc4)cc(=O)n3nc12
Response: F

----------
Tested on: SK-MEL-28 melanoma
Assay: NCI tumour cell line growth inhibition, 48 h
Quick reference for TGI among some compounds

Some compounds with recorded TGI:
Query: // lookup TGI | system=SK-MEL-28 melanoma | key= COc1cc(-c2cc(C(=O)N3CCN(C(=O)c4ccccc4NCc4ccco4)CC3)nc3cc(-c4ccccc4)nn23)cc(OC)c1OC
Response: > 100 µM

Query: Repeat for the following compound: O=C(O)CCC(NC(=O)c1ccc(Nc2nc3ccccc3nc2C(=O)O)cc1)C(=O)O (stereo unspecified)
Response: > 100 µM

Query: Repeat for the following compound: CCOC(=O)N1CCN(Cc2cc(=O)n3cc(C)ccc3n2)CC1
Response: > 100 µM

Query: Repeat for the following compound: CC(C)(C)c1cc(C(=O)/C=C/c2ccc(O)c(O)c2O)cc(C(C)(C)C)c1O
Response: 28.1 µM

Others:
Query: // lookup TGI | system=SK-MEL-28 melanoma | key= O=C1C=C(N2CCCC2)C=C(N2CCCC2)C1
Response: > 100 µM

Query: Repeat for the following compound: OB([O][Hg][c]1ccccc1)[O][Hg][c]1ccccc1
Response: 1.33 µM

Query: Repeat for the following compound: Clc1ccccc1/C=C/c1nsc(/C=C/c2ccccc2Cl)n1
Response: > 100 µM

Query: Repeat for the following compound: C/C(=N\NC(=S)Nc1ccc(C(=O)O)cc1)c1ccccn1
Response: > 100 µM

Query: Repeat for the following compound: C=C(c1ccccc1N)[C@@]1(O)C[C@H](/C(=C\C)CO)C[C@@H]1NCc1ccccc1
Response: 33 µM

Query: Repeat for the following compound: O=C(O)C(CS)NCc1c2ccccc2[n+]([O-])c2ccccc12 (stereo unspecified)
Response: > 100 µM

Query: Repeat for the following compound: O=C(O)CN(c1ccc(Cl)cc1)S(=O)(=O)c1ccccc1
Response: > 100 µM

----------
Quick reference for TGI among some molecules
System: CAKI-1 renal
Assay: NCI tumour cell line growth inhibition, 48 h
Only the number, expressed in µM, is required.

Query: Find the recorded TGI belonging to COc1ccc(/C=C2\CN(C(=O)CCN3CCC(=NO)CC3)C/C(=C\c3ccc(OC)cc3)C2=O)cc1 and report it.
Response: 3.74

Now look at this one.
Query: Find the recorded TGI belonging to CC12OC(C(=O)C13CC3)C1C(=O)c3ccccc3C(=O)C12 (stereo not given) and report it.
Response: 38.5

----------
System: SNB-75 CNS
Test: NCI tumour cell line growth inhibition, 48 h
Quick reference for TGI among some compounds
Only the number, expressed in µM, is required.

Query: Find the recorded TGI belonging to COC(=O)[C@]12CC[C@@H](C)[C@H](C)[C@@H]1C1=CC[C@@H]3[C@@]4(C)CC(=O)[C@H](O)[C@@]5(C)COC(=C45)C[C@@]3(C)[C@]1(C)CC2 and report it.
Response: 33

Query: Repeat for the following compound: COc1ccc(/C(=C/c2cc(OC)c(OC)c(OC)c2)[N+](=O)[O-])cc1
Response: 6.3

Query: Repeat for the following compound: C[C@H]1[C@H](OC(=O)CCC(=O)O)O[C@@H]2O[C@]3(C)CC[C@H]4[C@H](C)CC[C@@H]1[C@@]24OO3
Response: 17.6

Others:
Query: Find the recorded TGI belonging to Cc1nc(-c2ccccc2)c(C)n2c1nc1ccccc12 and report it.
Response: 66.3

----------
System: OVCAR-4 ovarian
Experiment: NCI tumour cell line growth inhibition, 48 h
Quick reference for TGI among some compounds

Query: Find the recorded TGI belonging to CNC(=O)OCc1nc(SC(C)C)n(C)c1COC(=O)NC and report it.
Response: > 100 µM

Query: Repeat for the following compound: CCOC(=O)C1C=C2O[C@@H]3OC4(CCCCC4)O[C@@H]3C2[C@H]2C(=O)C=CC(=O)[C@@]12C(=O)OC (some centres undefined)
Response: 23.3 µM

Query: Repeat for the following compound: O=C1/C(=C\c2ccc([N+](=O)[O-])cc2)Sc2scc(-c3ccc(O)c(O)c3)[n+]21
Response: 24.7 µM

Query: Repeat for the following compound: C[C@@H](c1ccc2nccn2c1)n1nnc2ncc(-c3cnn(C)c3)nc21
Response: > 100 µM

Query: Repeat for the following compound: COc1ccc(-c2cc(-c3ccc(Nc4nc(Nc5ccc(Cl)cc5)nc(Nc5ccc(Cl)cc5)n4)cc3)nc(N)c2C#N)cc1
Response: > 100 µM

Others:
Query: Find the recorded TGI belonging to O=S(=O)(c1ccc(NC(=S)N/N=C/c2ccccc2O)cc1)N1CCCCC1 and report it.
Response: > 71.4 µM

----------
System: SW-620 colon
Assay: NCI tumour cell line growth inhibition, 48 h; in the data active = GI50 below about 0.43 µM; inactive = the rest
Allowed answers: active, inactive

Worked cases, answers included:
Query: # lookup: test call for COc1ccc(/C(=C/c2cc(OC)c(OC)c(OC)c2)[N+](=O)[O-])cc1
Response: inactive

Query: Repeat for the following compound: O=C1C=C[C@]2(C[C@@H](c3cccc(C(F)(F)F)c3)O[C@@H](c3cccc(C(F)(F)F)c3)O2)O1
Response: inactive

Query: Repeat for the following compound: CCOC(=O)CCC(NC(=O)c1ccc(N=Cc2nc3cc(C(F)(F)F)ccc3nc2-c2ccccc2)cc1)C(=O)OCC (configuration not stated)
Response: inactive

Query: Repeat for the following compound: O/N=C1\CCc2cc(-c3nc(C4CCNCC4)[nH]c3-c3ccncc3)ccc21
Response: inactive

Query: Repeat for the following compound: CC(=O)[CH-]C(=O)c1ccccc1.CC(=O)[CH-]C(=O)c1ccccc1.CCN(CC)CC[O-].CCN(CC)CC[O-].Cl.[Ti+4]
Response: inactive

Others:
Query: # lookup: test call for COc1ccccc1C(=O)/C=C/c1cc2cccc(OC)c2[nH]c1=O
Response: active

Query: Repeat for the following compound: COc1cc[nH]c1/C=C1\C(=O)Nc2ccc(F)c(C#C[C@@H](O)[C@@H](N)[C@@H](C)O)c21
Response: inactive

Numbers sourced from PubChem BioAssay (NCI).
